Assay: Plasma pharmacokinetics after single oral dose of Δ8-THCV in MCT oil (LC-MS/MS, non-compartmental analysis)
Format: in vivo, human
Conditions: human, plasma, po, 100 mg, 100 mg single oral Δ8-THCV in MCT oil; Median (Range)
# Cmax listing for each entry below
Expressed in ng/mL, but write only the number.

CCCc1cc(O)c2c(c1)OC(C)(C)[C@@H]1CCC(C)=C[C@@H]21 [Δ9-THCV, Δ9-tetrahydrocannabivarin] : 0.9
CCCc1cc(O)c2c(c1)OC(C)(C)[C@@H]1CC=C(C(=O)O)C[C@@H]21 : 699
CCCc1cc(O)c2c(c1)OC(C)(C)[C@@H]1CCC(C(=O)O)=C[C@@H]21 : 20.6
CCCc1cc(O)c2c(c1)OC(C)(C)[C@@H]1CC=C(C)C[C@@H]21 [Δ8-THCV, Δ8-tetrahydrocannabivarin] : 22
CCCCCc1cc(O)c2c(c1)OC(C)(C)[C@@H]1CC=C(C(=O)O)CC21 (single isomer, unassigned; (+)) [Δ8-THC-COOH, (+)-11-nor-Δ8-THC-9-carboxylic acid] : 1.4

Lab note: measured Cmax of CCCc1cc(O)c2c(c1)OC(C)(C)[C@@H]1CC=C(CO)C[C@@H]21 (racemic) [11-OH-Δ8-THCV, (±)-11-hydroxy-Δ8-THCV] was 3.4

###

# Tmax listing for each entry below
Assay: Plasma pharmacokinetics after single oral dose of Δ8-THCV in MCT oil (LC-MS/MS, non-compartmental analysis)
Assay type: in vivo, human
Settings: human, plasma, po, 100 mg, 100 mg single oral Δ8-THCV in MCT oil; plasma; Median (Range); read-out: tmax
Expressed in h, but write only the number.

Some solved entries appear below for comparison.
CCCc1cc(O)c2c(c1)OC(C)(C)[C@@H]1CC=C(C)C[C@@H]21 [Δ8-THCV, Δ8-tetrahydrocannabivarin] : 4
CCCc1cc(O)c2c(c1)OC(C)(C)[C@@H]1CC=C(CO)C[C@@H]21 (racemic) [11-OH-Δ8-THCV, (±)-11-hydroxy-Δ8-THCV] : 5
CCCc1cc(O)c2c(c1)OC(C)(C)[C@@H]1CC=C(C(=O)O)C[C@@H]21 : 4
CCCc1cc(O)c2c(c1)OC(C)(C)[C@@H]1CCC(C)=C[C@@H]21 [Δ9-THCV, Δ9-tetrahydrocannabivarin] : 5
CCCCCc1cc(O)c2c(c1)OC(C)(C)[C@@H]1CC=C(C(=O)O)CC21 (single isomer, unassigned; (+)) [Δ8-THC-COOH, (+)-11-nor-Δ8-THC-9-carboxylic acid] : 5

Proceed to the following item.
Lab note: measured Tmax of "CCCc1cc(O)c2c(c1)OC(C)(C)[C@@H]1CCC(C(=O)O)=C[C@@H]21" was 4

###

Test: Plasma pharmacokinetics after single oral dose of Δ8-THCV in MCT oil (LC-MS/MS, non-compartmental analysis)
Assay type: in vivo, human
Settings: human, plasma, oral, 12.5 mg, 8 h; 12.5 mg Δ8-THCV dose; Median (IQ Range)
Experimental: The study was a two-phase, dose-ranging, placebo-controlled trial in 21 healthy participants to assess the safety, tolerability, PK, and PD of an oral formulation of Δ8-THCV. A detailed description of the study was published elsewhere. […] Plasma samples were analyzed using a validated high-performance liquid chromatography–tandem mass spectrometry (LC-MS/MS) assay. […] For the PK analysis, concentrations below the lower limit of quantification were set to 0 ng/mL. […]
# concentration at 8 h listing for each entry below
Expressed in ng/mL, but write only the number.

Some solved entries appear below for comparison.
CCCc1cc(O)c2c(c1)OC(C)(C)[C@@H]1CCC(C(=O)O)=C[C@@H]21 : 1.4
CCCc1cc(O)c2c(c1)OC(C)(C)[C@@H]1CC=C(CO)C[C@@H]21 (racemic) [11-OH-Δ8-THCV, (±)-11-hydroxy-Δ8-THCV] : 0

Proceed to the following item.
Lab note: measured concentration at 8 h of CCCCCc1cc(O)c2c(c1)OC(C)(C)[C@@H]1CC=C(C(=O)O)CC21 (single isomer, unassigned; (+)) [Δ8-THC-COOH, (+)-11-nor-Δ8-THC-9-carboxylic acid] was 0

###

Experiment: Plasma pharmacokinetics after single oral dose of Δ8-THCV in MCT oil (LC-MS/MS, non-compartmental analysis)
Format: in vivo, human
Settings: human, plasma, po, 12.5 mg, 12.5 mg single oral Δ8-THCV in MCT oil; plasma; Median (Range); read-out: MRT (mean residence time)
measurement_type: MRT
Give me the value, and tack the unit on after it.

CCCc1cc(O)c2c(c1)OC(C)(C)[C@@H]1CC=C(C)C[C@@H]21 [Δ8-THCV, Δ8-tetrahydrocannabivarin] : 4 h
CCCc1cc(O)c2c(c1)OC(C)(C)[C@@H]1CC=C(CO)C[C@@H]21 (racemic) [11-OH-Δ8-THCV, (±)-11-hydroxy-Δ8-THCV] : 1.4 h
CCCc1cc(O)c2c(c1)OC(C)(C)[C@@H]1CC=C(C(=O)O)C[C@@H]21 : 4.9 h

Proceed to the following item.
Lab note: measured MRT of "CCCc1cc(O)c2c(c1)OC(C)(C)[C@@H]1CCC(C(=O)O)=C[C@@H]21" was 5.3 h

###

# MRT listing for each entry below
Assay: Plasma pharmacokinetics after single oral dose of Δ8-THCV in MCT oil (LC-MS/MS, non-compartmental analysis)
Type: in vivo, human
Conditions: human, plasma, po, 25 mg, 25 mg single oral Δ8-THCV in MCT oil; plasma; Mean (±SD); read-out: MRT (mean residence time)
Expressed in h, but write only the number.

Some solved entries appear below for comparison.
CCCc1cc(O)c2c(c1)OC(C)(C)[C@@H]1CCC(C(=O)O)=C[C@@H]21 : 4.8
CCCc1cc(O)c2c(c1)OC(C)(C)[C@@H]1CC=C(C)C[C@@H]21 [Δ8-THCV, Δ8-tetrahydrocannabivarin] : 4.1
CCCc1cc(O)c2c(c1)OC(C)(C)[C@@H]1CC=C(CO)C[C@@H]21 (racemic) [11-OH-Δ8-THCV, (±)-11-hydroxy-Δ8-THCV] : 3.6

Proceed to the following item.
Lab note: measured MRT of "CCCc1cc(O)c2c(c1)OC(C)(C)[C@@H]1CC=C(C(=O)O)C[C@@H]21" was 4.8

###

# concentration at 0.5 h listing for each entry below
Test: Plasma pharmacokinetics after single oral dose of Δ8-THCV in MCT oil (LC-MS/MS, non-compartmental analysis)
Assay type: in vivo, human
Details: human, plasma, oral, 12.5 mg, 0.5 h; 12.5 mg Δ8-THCV dose; Median (IQ Range)
Method: The study was a two-phase, dose-ranging, placebo-controlled trial in 21 healthy participants to assess the safety, tolerability, PK, and PD of an oral formulation of Δ8-THCV. A detailed description of the study was published elsewhere. […] Plasma samples were analyzed using a validated high-performance liquid chromatography–tandem mass spectrometry (LC-MS/MS) assay. […] For the PK analysis, concentrations below the lower limit of quantification were set to 0 ng/mL. […]
Expressed in ng/mL, but write only the number.

Some solved entries appear below for comparison.
CCCc1cc(O)c2c(c1)OC(C)(C)[C@@H]1CC=C(C(=O)O)C[C@@H]21 [Δ8-THCV-COOH, 11-nor-9-carboxy-Δ8-THCV] : 0
CCCCCc1cc(O)c2c(c1)OC(C)(C)[C@@H]1CC=C(C(=O)O)CC21 (single isomer, unassigned; (+)) [Δ8-THC-COOH, (+)-11-nor-Δ8-THC-9-carboxylic acid] : 0

Lab note: measured concentration at 0.5 h of CCCc1cc(O)c2c(c1)OC(C)(C)[C@@H]1CC=C(CO)C[C@@H]21 (racemic) [11-OH-Δ8-THCV, (±)-11-hydroxy-Δ8-THCV] was 0

###

Test: Plasma pharmacokinetics after single oral dose of Δ8-THCV in MCT oil (LC-MS/MS, non-compartmental analysis)
Assay type: in vivo, human
Conditions: human, plasma, oral, 100 mg, 8 h; 100 mg Δ8-THCV dose; Median (IQ Range)
measurement_type: concentration at 8 h
Give me the value, and tack the unit on after it.

CCCc1cc(O)c2c(c1)OC(C)(C)[C@@H]1CCC(C)=C[C@@H]21 [Δ9-THCV, Δ9-tetrahydrocannabivarin] : 0 ng/mL
CCCc1cc(O)c2c(c1)OC(C)(C)[C@@H]1CC=C(C(=O)O)C[C@@H]21 : 304 ng/mL

Proceed to the following item.
Lab note: measured concentration at 8 h of CCCCCc1cc(O)c2c(c1)OC(C)(C)[C@@H]1CC=C(C(=O)O)CC21 (single isomer, unassigned; (+)) [Δ8-THC-COOH, (+)-11-nor-Δ8-THC-9-carboxylic acid] was 0 ng/mL

###

# tlast (time to last quantifiable concentration) listing for each entry below
Test: Plasma pharmacokinetics after single oral dose of Δ8-THCV in MCT oil (LC-MS/MS, non-compartmental analysis)
Assay type: in vivo, human
Conditions: 100 mg single oral Δ8-THCV in MCT oil; plasma; Median (Range)

Some solved entries appear below for comparison.
CCCc1cc(O)c2c(c1)OC(C)(C)[C@@H]1CCC(C(=O)O)=C[C@@H]21 [Δ9-THCV-COOH, 11-nor-9-carboxy-Δ9-THCV] : 8 (8–8)
CCCc1cc(O)c2c(c1)OC(C)(C)[C@@H]1CCC(C)=C[C@@H]21 [Δ9-THCV, Δ9-tetrahydrocannabivarin] : 5 (2–6)
CCCc1cc(O)c2c(c1)OC(C)(C)[C@@H]1CC=C(CO)C[C@@H]21 (racemic) [11-OH-Δ8-THCV, (±)-11-hydroxy-Δ8-THCV] : 8 (4–8)
CCCc1cc(O)c2c(c1)OC(C)(C)[C@@H]1CC=C(C)C[C@@H]21 [Δ8-THCV, Δ8-tetrahydrocannabivarin] : 8 (8–8)
CCCc1cc(O)c2c(c1)OC(C)(C)[C@@H]1CC=C(C(=O)O)C[C@@H]21 [Δ8-THCV-COOH, 11-nor-9-carboxy-Δ8-THCV] : 8 (8–8)

Lab note: measured tlast (time to last quantifiable concentration) of CCCCCc1cc(O)c2c(c1)OC(C)(C)[C@@H]1CC=C(C(=O)O)CC21 (single isomer, unassigned; (+)) [Δ8-THC-COOH, (+)-11-nor-Δ8-THC-9-carboxylic acid] was 6 (4–8)

Data origin, for the record: paper PMC11676667
